- Study system: Schistosoma mansoni thioredoxin glutathione reductase (TGR)
- Protocol notes: qHTS Assay for the Inhibitors of Schistosoma Mansoni Peroxiredoxins; also: nearly all actives have a fitted effect of over 60% in size; also: potency is read from the fitted curve at half-maximal effect
- Protocol conditions: purified TGR, DTNB reduction, TNB absorbance 405 nm; series mostly up to 114 µM
About 11,000 (3.1%) of roughly 360,000 compounds were called active. Another 4% or so got no clear call; they are omitted. This excerpt belongs to a sample that is enriched for actives.
Reported property: Potency

| Compound | Study system | Endpoint value |
| --- | --- | --- |
| CCCCC12CN3CC(C)(CN(C1)C3c1ccc(O)c(OC)c1)C2=O (configuration not stated) | Schistosoma mansoni thioredoxin glutathione reductase (TGR) | inactive |
| O=C(c1ccco1)N1CCN(C(=O)c2ccc(COc3ccc(F)cc3)o2)CC1 | Schistosoma mansoni thioredoxin glutathione reductase (TGR) | 44.7 µM (active) |
| CCc1cccc(C)c1NS(=O)(=O)c1ccc(-c2cc(C)no2)s1 | Schistosoma mansoni thioredoxin glutathione reductase (TGR) | inactive |
| CCCCn1c(=O)c2oc3ccccc3c2n(CC(=O)Nc2ccccc2OC)c1=O | Schistosoma mansoni thioredoxin glutathione reductase (TGR) | inactive |
| CCOC(=O)c1ccc(NC(=O)c2c(NCc3cccs3)sc3c2CCCC3)cc1 | Schistosoma mansoni thioredoxin glutathione reductase (TGR) | inactive |
| COc1cc(C(=S)N2CCOCC2)ccc1O | Schistosoma mansoni thioredoxin glutathione reductase (TGR) | inactive |
| Cc1ccc(C)c(S(=O)(=O)n2cnc3ccccc32)c1 | Schistosoma mansoni thioredoxin glutathione reductase (TGR) | inactive |
| CC(/C=N/NC(=O)c1cc(-c2ccc3ccccc3c2)n[nH]1)=C\c1ccco1 | Schistosoma mansoni thioredoxin glutathione reductase (TGR) | inactive |
| CCCc1[nH]nc2c1C(c1ccc(Br)s1)C(C#N)=C(N)O2 (configuration not stated) | Schistosoma mansoni thioredoxin glutathione reductase (TGR) | inactive |
| CCN(C(=O)CSc1ncn[nH]1)c1cccc2ccccc12 | Schistosoma mansoni thioredoxin glutathione reductase (TGR) | inactive |
| COc1ccc(OCCCn2c(C3CC(=O)N(c4ccc(F)cc4)C3)nc3ccccc32)cc1 (configuration not stated) | Schistosoma mansoni thioredoxin glutathione reductase (TGR) | inactive |
| Cc1cc(C)nc(S/C=C/C(=O)c2ccccc2)n1 | Schistosoma mansoni thioredoxin glutathione reductase (TGR) | 1.12 µM (active) |
| O=C(c1ccco1)N1CCN(CCOc2ccccc2)CC1 | Schistosoma mansoni thioredoxin glutathione reductase (TGR) | inactive |
| CC(C)c1ccc(NC(=O)CN(C)S(=O)(=O)c2ccc3c(c2)c(=O)n(C)c(=O)n3C)cc1 | Schistosoma mansoni thioredoxin glutathione reductase (TGR) | inactive |
| COc1ccc(CNC(=O)c2cc3c(=O)[nH]c4ccc(C)cc4c3s2)c(OC)c1 | Schistosoma mansoni thioredoxin glutathione reductase (TGR) | inactive |
| CC(=O)Nc1cccc(NC(=O)CSc2nccn2Cc2ccc3c(c2)OCO3)c1 | Schistosoma mansoni thioredoxin glutathione reductase (TGR) | inactive |
| Cc1cccc(-n2ncc(Cl)c(Cl)c2=O)c1 | Schistosoma mansoni thioredoxin glutathione reductase (TGR) | 28.2 µM (active) |
| Cc1ccc(CNC(=O)CCS(=O)(=O)c2ccc3c(c2)CC(C)N3C(=O)C2CC2)o1 (configuration not stated) | Schistosoma mansoni thioredoxin glutathione reductase (TGR) | 44.7 µM (active) |
| Cc1nc2ccc(S(=O)(=O)N(CC(=O)Nc3ccc(F)cc3)Cc3ccccc3)cc2s1 | Schistosoma mansoni thioredoxin glutathione reductase (TGR) | inactive |
| CCOC(=O)c1ccc(N2C(=O)CC(Sc3nc(O)c(CC)c(=O)[nH]3)C2=O)cc1 (configuration not stated) | Schistosoma mansoni thioredoxin glutathione reductase (TGR) | inactive |
| CC(=O)Nc1ccc(S(=O)(=O)NC2(C(F)(F)F)C(=O)Nc3c2c(=O)[nH]c(=O)n3Cc2ccccc2)cc1 (configuration not stated) | Schistosoma mansoni thioredoxin glutathione reductase (TGR) | inactive |
| COc1ccc(-c2cc(-c3nc(-c4cc(OC)c(OC)c(OC)c4)no3)[nH]n2)c(OC)c1 | Schistosoma mansoni thioredoxin glutathione reductase (TGR) | inactive |
| CCOC(=O)c1cc2c(=O)n3ccccc3nc2n(CC2CCCO2)c1=NC(=O)c1ccc(C(C)(C)C)cc1 (configuration not stated) | Schistosoma mansoni thioredoxin glutathione reductase (TGR) | inactive |
| CC1Cc2cc(S(=O)(=O)CCC(=O)Nc3ccc(F)c(Cl)c3)ccc2N1C(=O)C1CC1 (configuration not stated) | Schistosoma mansoni thioredoxin glutathione reductase (TGR) | inactive |
| COc1ccc(N2C(=O)CC(Sc3n[nH]c(-c4ccc(C)cc4)n3)C2=O)cc1 (configuration not stated) | Schistosoma mansoni thioredoxin glutathione reductase (TGR) | 0.708 µM (active) |
| CC(=O)Nc1ccc(NS(=O)(=O)c2ccc3c(c2)NC(=O)CC(=O)N3)cc1 | Schistosoma mansoni thioredoxin glutathione reductase (TGR) | inactive |
| CC(=O)Nc1ccc(N2C(=O)CC(Sc3nccc(C)n3)C2=O)cc1 (configuration not stated) | Schistosoma mansoni thioredoxin glutathione reductase (TGR) | inactive |
| COc1ccc(OC)c(NC(=S)N2CCc3ccccc3C2)c1 | Schistosoma mansoni thioredoxin glutathione reductase (TGR) | inactive |
| COc1ccc(-c2[nH]nc3c2C(c2ccncc2)C(C#N)=C(N)O3)cc1 (configuration not stated) | Schistosoma mansoni thioredoxin glutathione reductase (TGR) | inactive |
| COc1ccc(C(=O)c2oc3ccccc3c2NC(=O)COc2cccc(C)c2)cc1 | Schistosoma mansoni thioredoxin glutathione reductase (TGR) | inactive |
| COc1ccc(CNC(=O)CSc2n[nH]c(-c3ccc(F)cc3)n2)cc1 | Schistosoma mansoni thioredoxin glutathione reductase (TGR) | inactive |
| CCOC(=O)C1=C(c2ccccc2)Nc2ncnn2C1c1ccc(Cl)cc1 (configuration not stated) | Schistosoma mansoni thioredoxin glutathione reductase (TGR) | inactive |
| Cc1cc(C)c(S(=O)(=O)n2cc(C(C)C(N)C(=O)O)c3ccccc32)c(C)c1 (configuration not stated) | Schistosoma mansoni thioredoxin glutathione reductase (TGR) | 10 µM (active) |
| Cc1ccc(S(=O)(=O)n2cnc3ccccc32)c(C)c1 | Schistosoma mansoni thioredoxin glutathione reductase (TGR) | inactive |
| Cc1cc(C)c(C#N)c(SCc2[nH]nc3c2C(c2ccccc2)C(C#N)=C(N)O3)n1 (configuration not stated) | Schistosoma mansoni thioredoxin glutathione reductase (TGR) | 22.4 µM (active) |
| O=C1CC(c2ccccc2)C(=O)N1c1cccc(O)c1 (configuration not stated) | Schistosoma mansoni thioredoxin glutathione reductase (TGR) | inactive |
| COc1cc(Cl)ccc1Nc1ncc(C(=O)N2CCN(c3ccccc3OC)CC2)c2ccccc12 | Schistosoma mansoni thioredoxin glutathione reductase (TGR) | inactive |
| COc1ccc(N2C(=O)CC(SC(C)C)C2=O)cc1 (configuration not stated) | Schistosoma mansoni thioredoxin glutathione reductase (TGR) | inactive |
| CCCC[C@]12Cc3cc(OC)c(OC)cc3C(O1)C1=C(CC3(CCCCC3)OC1=O)O2 | Schistosoma mansoni thioredoxin glutathione reductase (TGR) | 11.2 µM (active) |
| Cc1cc(C)nc(SC(C)C(=O)N/N=C/c2cccs2)n1 (configuration not stated) | Schistosoma mansoni thioredoxin glutathione reductase (TGR) | inactive |
| O=C1CC(Sc2ncn[nH]2)C(=O)N1c1ccccc1 (configuration not stated) | Schistosoma mansoni thioredoxin glutathione reductase (TGR) | 0.501 µM (active) |
| Fc1ccccc1/C=C1\CCCC2=C1Nc1ncnn1C2c1ccccc1F (configuration not stated) | Schistosoma mansoni thioredoxin glutathione reductase (TGR) | 1.26 µM (active) |

----------
- Study system: Schistosoma mansoni thioredoxin glutathione reductase (TGR)
- Protocol notes: qHTS Assay for the Inhibitors of Schistosoma Mansoni Peroxiredoxins; also: nearly all actives have a fitted effect of over 60% in size
- Protocol conditions: purified TGR, DTNB reduction, TNB absorbance 405 nm; series mostly up to 114 µM
Screen size: about 360,000 compounds; about 11,000 (3.1%) were called active. Inconclusive results (about 4%) are left out. Calls follow the shape of the dose curve; as a rule, active = well fitted inhibition curve with a large enough effect; inconclusive = small, poorly fitted or top-dose-only effect; inactive = no such curve, though single readings can be large or run the other way. For the sample, actives were picked, then their nearest neighbours and some compounds at random.
Labels: active, inactive

| Molecule | Category |
| --- | --- |
| COc1ccc(Nc2cc(C(=O)NCCCN(C)c3ccccc3)c3ccccc3n2)c(OC)c1 | inactive |
| O=C(COC(=O)Cn1cnc2ccccc2c1=O)NCc1ccccc1Cl | inactive |
| Cc1cccc(N2CCN(C(=O)CCn3c(=O)c4cccn4c4cccnc43)CC2C)c1 (stereo not given) | inactive |
| COc1ccc(N2CCN(S(=O)(=O)CCNC(=O)C(c3ccccc3)c3ccccc3)CC2)cc1 | inactive |
| CCCCn1c(N)c(N(CC)C(=O)c2ccccc2C(F)(F)F)c(=O)[nH]c1=O | inactive |
| Cc1c2cnn(-c3ccccc3)c(=O)c2c(C)n1C(C)C(=O)Nc1ccc(Br)cc1F (stereo not given) | inactive |
| CCCCN(C(=O)c1nn(C)c(=O)c2ccccc12)c1c(N)n(CCC)c(=O)[nH]c1=O | inactive |
| COc1ccc(C(C)=O)cc1COC(=O)Cn1cnc2ccccc2c1=O | active |
| CCCCn1c(N)c(N(CC)C(=O)c2ccc(N(C)S(=O)(=O)c3ccc(C)cc3)cc2)c(=O)[nH]c1=O | inactive |
| N#C/C(=C\c1ccccc1F)c1nc2ccccc2c(=O)[nH]1 | inactive |
| COc1ccc(NC(=O)c2sc3nc(-c4cc5cccc(OC)c5oc4=O)[nH]c(=O)c3c2C)cc1 | inactive |
| Cc1noc(/C=C/c2ccco2)c1S(=O)(=O)N1CCC(C(=O)N2CCc3ccccc32)CC1 | active |
| CNC(=O)C1CCN(S(=O)(=O)c2c(C)noc2/C=C/c2cccc(C)c2)CC1 | inactive |
| O=C(NCc1ccco1)C1CCCN(S(=O)(=O)c2cccc3nonc23)C1 (stereo not given) | active |
| Cc1oc(C)c2c(=O)cc(-c3ccc4c(c3)OCO4)cc(OC(=O)c3ccc(Cl)cc3)c12 | inactive |
| CC(=O)N1CCCc2cc(S(=O)(=O)N3CCC(C(=O)NC4CCCCC4)CC3)ccc21 | inactive |
| CCC(Sc1nnc(-c2ccc(OC)cc2)c(-c2ccc(OC)cc2)n1)C(=O)NC1CCCCC1 (stereo not given) | inactive |
| Cn1cncc1COC(=O)c1ccc(Cl)cc1 | inactive |
| Fc1ccccc1Oc1ncnc2c1oc1ccccc12 | inactive |
| CCOc1ccc(OCC)c(NC(=O)c2cc(C)nc3c2c(C)nn3-c2cccc(Cl)c2C)c1 | inactive |
